All values here come from patent US20120165319A1.

Form field: pIC50 (one value per entry).
# Test system: IL-1β, human whole blood
# assay_overview: Whole blood assay for IL-1β production
# Type: cell-based
# test_context: Homo sapiens, * = values obtained upon reassay; read-out: Whole human blood IC50
Scale explanation: pIC50 corresponds to minus log10 of a concentration expressed in moles per litre.

>>> result("CCOC1OC(=O)C[C@@H]1NC(=O)[C@@H]1CCCN2C(=O)CC[C@H](NC(=O)c3ccccc3)C(=O)N12 (some centres unmarked) [Compound 2100e]")
6.22
>>> result("CN(C)c1ccc(C(=O)N[C@H]2CCC(=O)N3CCC[C@@H](C(=O)N[C@H](C=O)CC(=O)O)N3C2=O)cc1")
6.40
>>> result("COC(=O)N[C@H]1CCC(=O)N2CCC[C@@H](C(=O)N[C@@H](CC(=O)O)C(=O)COC(=O)c3c(Cl)cccc3Cl)N2C1=O")
6.26
>>> result("COc1ccccc1C(=O)N[C@H]1CCC(=O)N2CCC[C@@H](C(=O)N[C@H](C=O)CC(=O)O)N2C1=O")
5.68
>>> result("CC(C)CC(=O)Nc1ccc(C(=O)N[C@H]2CCC(=O)N3CCC[C@@H](C(=O)N[C@H](C=O)CC(=O)O)N3C2=O)cc1")
6.30

Sample O=C[C@H](CC(=O)O)NC(=O)[C@@H]1CCCN2C(=O)CC[C@H](NC(=O)/C=C/c3ccccc3)C(=O)N12 , system: IL-1β, human whole blood. Its pIC50 is 5.15

Sample CCCC(=O)Nc1ccc(C(=O)N[C@H]2CCC(=O)N3CCC[C@@H](C(=O)N[C@H](C=O)CC(=O)O)N3C2=O)cc1 , system: IL-1β, human whole blood. Its pIC50 is 6.12

Sample O=C[C@H](CC(=O)O)NC(=O)[C@@H]1CCCN2C(=O)CC[C@H](NC(=O)c3cc4ccccc4[nH]3)C(=O)N12 , system: IL-1β, human whole blood. Its pIC50 is 6.40

Sample Nc1cc2ccccc2cc1C(=O)N[C@H]1CCC(=O)N2CCC[C@@H](C(=O)N[C@H](C=O)CC(=O)O)N2C1=O , system: IL-1β, human whole blood. Its pIC50 is 5.70
